Target: Cytochrome P450 2D6 (Homo sapiens, UniProt P10635)
Sequence (P10635 whole entry): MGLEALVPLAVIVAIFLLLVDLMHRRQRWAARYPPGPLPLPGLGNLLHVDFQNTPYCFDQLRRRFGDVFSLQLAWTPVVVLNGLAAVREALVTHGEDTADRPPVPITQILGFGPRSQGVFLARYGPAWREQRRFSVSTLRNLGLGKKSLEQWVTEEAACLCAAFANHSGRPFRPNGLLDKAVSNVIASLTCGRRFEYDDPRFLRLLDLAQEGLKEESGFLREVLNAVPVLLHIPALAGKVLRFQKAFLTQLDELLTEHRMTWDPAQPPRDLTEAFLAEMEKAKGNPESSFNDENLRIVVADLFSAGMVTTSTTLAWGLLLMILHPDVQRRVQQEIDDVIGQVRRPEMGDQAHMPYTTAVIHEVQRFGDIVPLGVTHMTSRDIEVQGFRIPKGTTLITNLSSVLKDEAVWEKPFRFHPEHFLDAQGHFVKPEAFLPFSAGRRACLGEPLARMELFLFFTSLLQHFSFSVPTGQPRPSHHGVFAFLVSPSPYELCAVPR
MEASURE_NAME: IC50

Find IC50 (Cytochrome P450 2D6 (Homo sapiens, UniProt P10635)) for the entry CC(=O)Nc1cccc2c1c(Sc1ccc(Cl)cc1)c(C)n2CC(=O)O
> 10 µM

====

// reported half-life for each item listed
Test: Half life in Sprague-Dawley rat at 1 mg/kg, iv
Type: ADME, organism-based
Parameters: dose 1 mg/kg, route intravenous
Conditions: in vivo
A number alone suffices; assume h.

{"CPD_SMILES": "CC(=O)Nc1cccc2c1c(S(=O)(=O)c1ccc(Cl)cc1)c(C)n2CC(=O)O", "MEASURE_NAME": "half-life", "DISPLAY_UNIT": "h", "REPORTED_MEASUREMENT": 0.9}
{"CPD_SMILES": "Cc1c(Sc2ccc(Cl)cc2)c2c(NS(C)(=O)=O)cccc2n1CC(=O)O", "MEASURE_NAME": "half-life", "DISPLAY_UNIT": "h", "REPORTED_MEASUREMENT": 1.7}

Endpoint output: half-life of CC(=O)Nc1cccc2c1c(Sc1ccc(Cl)cc1)c(C)n2CC(=O)O . Value?
1.9

Could you do the same for Cc1c(Oc2ccc(Cl)cc2)c2c(NS(C)(=O)=O)cccc2n1CC(=O)O , please?
1.4

====

Target: Aldehyde reductase AKR1A1 (Homo sapiens)
Experiment: Inhibition of human recombinant aldose reductase 1 after 15 mins by spectrophotometry analysis
MEASURE_NAME: pIC50
Please express pIC50 as -log10 of the molar concentration.

{"CPD_SMILES": "CC(=O)Nc1cccc2c1c(S(=O)(=O)c1ccc(Cl)cc1)c(C)n2CC(=O)O", "TESTED_ON": "Aldehyde reductase AKR1A1 (Homo sapiens)", "REPORTED_MEASUREMENT": 6.15}

Requested read-out pIC50, target or system Aldehyde reductase AKR1A1 (Homo sapiens), entry Cc1c(F)ccc2c1c(Sc1ccc(Cl)cc1)c(C)n2CC(=O)O
5.65

Follow-up entry: Cc1c(Sc2ccc(Cl)cc2)c2cc(-c3ccccc3)ccc2n1CC(=O)O
5.75

Cc1c(Sc2ccc(Cl)cc2)c2c(Cl)cccc2n1CC(=O)O , same question.
5.75

====

Target: Prostaglandin D2 receptor 2 (Homo sapiens, UniProt Q9Y5Y4)
Sequence (Q9Y5Y4 whole entry): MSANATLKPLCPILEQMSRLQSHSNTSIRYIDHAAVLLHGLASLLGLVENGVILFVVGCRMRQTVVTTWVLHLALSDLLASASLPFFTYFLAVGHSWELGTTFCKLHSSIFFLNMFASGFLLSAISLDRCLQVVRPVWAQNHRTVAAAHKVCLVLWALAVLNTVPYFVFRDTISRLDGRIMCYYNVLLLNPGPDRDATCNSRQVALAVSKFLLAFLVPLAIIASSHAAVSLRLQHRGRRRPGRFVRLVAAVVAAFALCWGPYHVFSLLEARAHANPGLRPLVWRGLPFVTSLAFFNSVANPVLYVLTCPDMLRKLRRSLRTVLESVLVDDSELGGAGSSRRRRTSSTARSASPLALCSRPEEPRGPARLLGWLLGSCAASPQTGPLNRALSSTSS
Experiment: Displacement of [3H]PGD2 from human CRTH2 receptor
Note to self: use Criterion met only for IC50 readings below 40 nM; a reading exactly at 40 nM still gets Criterion not met.

{"COMPOUND": "Cc1ccc2c(c1)c([S+]([O-])c1ccc(Cl)cc1)c(C)n2CC(=O)O (centres undefined)", "LABEL_CLASS": "Criterion not met"}

API: query returns whether the compound falls strictly under 40 nM in IC50. Query: Cc1c(Sc2ccc(Cl)cc2)c2cc(Cl)c(C#N)cc2n1CC(=O)O
Criterion not met

Also, Cc1c(Sc2ccc(Cl)cc2)c2cccc(Cl)c2n1CC(=O)O please.
Criterion not met

Can you check CC(=O)Nc1cccc2c1c(Sc1ccc(Cl)cc1)c(C)n2CC(=O)O next?
Criterion met

# repeat for CC(=O)Nc1cccc2c1c(Oc1ccc(Cl)cc1)c(C)n2CC(=O)O
Criterion met

Thanks! And Cc1c(Sc2ccc(Cl)cc2)c2ccc(Cl)cc2n1CC(=O)O ?
Criterion not met

====

Assay: Inhibition of human recombinant aldose reductase 2 after 15 mins by spectrophotometry analysis
pIC50: −log10 of the molar value.
Recorded pIC50 by entry

{"CPD_SMILES": "Cc1c(Sc2ccc(Cl)cc2)c2cc(F)ccc2n1CC(=O)O", "pIC50": "< 5.10"}

Quick check: pIC50 of Cc1c(Sc2ccc(Cl)cc2)c2c(NS(C)(=O)=O)cccc2n1CC(=O)O ?
< 5.27

What would you report for Cc1c(S(=O)(=O)c2ccc(Cl)cc2)c2c(NS(C)(=O)=O)cccc2n1CC(=O)O ?
< 5.23

====

Here, each record is paired with measured pIC50 data.
Molecular target: Prostaglandin D2 receptor 2 (Homo sapiens)
Assay: Displacement of [3H]PGD2 from human CRTH2 receptor
Field pIC50 (float): negative decimal logarithm of the concentration in molar.

{"CPD_SMILES": "Cc1c(Oc2ccc(Cl)cc2)c2cc(C(F)(F)F)ccc2n1CC(=O)O", "pIC50": 7.96}
{"CPD_SMILES": "Cc1ccc2c(c1)c(S(=O)(=O)c1c(Cl)cccc1Cl)c(C)n2CC(=O)O", "pIC50": 6.90}
{"CPD_SMILES": "Cc1c(Sc2ccc(Cl)cc2)c2cc(-c3ccccc3)ccc2n1CC(=O)O", "pIC50": 8.46}
{"CPD_SMILES": "Cc1c(Oc2ccc(Cl)cc2)c2c(NS(C)(=O)=O)cccc2n1CC(=O)O", "pIC50": 8.46}

Continue with the next compound.
Request body: readout pIC50, system Prostaglandin D2 receptor 2 (Homo sapiens), query CC(=O)Nc1ccc2c(c1)c(Sc1ccc(Cl)cc1)c(C)n2CC(=O)O . Return the value.
7.25

====

Test: Lipophilicity, log D of the compound at pH 7.4
Conditions: buffer
# thresholds on logD define classes: low: < 0.2; middle: ≥ 0.2 and < 2; high: ≥ 2

For this molecule, which bin applies? Cc1ccc2c(c1)c([S+]([O-])c1ccc(Cl)cc1)c(C)n2CC(=O)O (stereo not drawn)
low

Next up: CNC(=O)c1cccc2c1c(Sc1ccc(Cl)cc1)c(C)n2CC(=O)O
low

And the next one, Cc1ccc2c(c1)c(Sc1cccc(Cl)c1)c(C)n2CC(=O)O ?
middle

Same thing, different molecule: Cc1ccc2c(c1)c(Sc1ccccc1Cl)c(C)n2CC(=O)O
middle

One more molecule: Cc1ccc2c(c1)c(S(=O)(=O)c1ccc(Cl)cc1)c(C)n2CC(=O)O
low

Okay, and Cc1c(S(=O)(=O)c2ccc(Cl)cc2)c2cc(F)ccc2n1CC(=O)O ?
low

Now the same for Cc1c(Oc2ccc(Cl)cc2)c2cc(C(F)(F)F)ccc2n1CC(=O)O
high

Quick one: Cc1c(Sc2ccc(Cl)cc2)c2c(Cl)nccc2n1CC(=O)O
middle

====

Assay: Intrinsic clearance in rat hepatocytes assessed as per 1 x 10^6 cells
MEASURE_NAME: hepatocyte CLint

Worked cases, answers included:
{"COMPOUND": "Cc1c(Sc2ccc(Cl)cc2)c2ccc(S(C)(=O)=O)cc2n1CC(=O)O", "REPORTED_MEASUREMENT": "< 3 µL/min/1e6 cells"}
{"COMPOUND": "CNC(=O)c1cccc2c1c(Sc1ccc(Cl)cc1)c(C)n2CC(=O)O", "REPORTED_MEASUREMENT": "< 3 µL/min/1e6 cells"}

Next, consider the following compound.
May I ask what hepatocyte CLint has been recorded for Cc1ccc2c(c1)c([S+]([O-])c1ccc(Cl)cc1)c(C)n2CC(=O)O (stereo not drawn) ?
< 5 µL/min/1e6 cells

====

Experiment: Intrinsic clearance in rat hepatocytes assessed as per 1 x 10^6 cells
# hepatocyte CLint per record follows
Response body: numeric value in µL/min/1e6 cells, unit text excluded.

Previously resolved entries follow.
{"CPD_SMILES": "CC(=O)Nc1ccc2c(c1)c(Sc1ccc(Cl)cc1)c(C)n2CC(=O)O", "hepatocyte CLint (µL/min/1e6 cells)": 8}
{"CPD_SMILES": "COc1cccc(S(=O)(=O)c2c(C)n(CC(=O)O)c3ccc(C)cc23)c1", "hepatocyte CLint (µL/min/1e6 cells)": 14}
{"CPD_SMILES": "Cc1ccc2c(c1)c(Sc1ccc(Cl)cc1)c(C)n2CC(=O)O", "hepatocyte CLint (µL/min/1e6 cells)": 18}
{"CPD_SMILES": "Cc1c(Sc2ccc(Cl)cc2)c2c(-c3ccccc3)cccc2n1CC(=O)O", "hepatocyte CLint (µL/min/1e6 cells)": 25}
{"CPD_SMILES": "Cc1c(Oc2ccc(Cl)cc2)c2c(-c3ccccc3)cccc2n1CC(=O)O", "hepatocyte CLint (µL/min/1e6 cells)": 14}

Now consider the entry below.
Look up hepatocyte CLint for this compound: Cc1c(Sc2ccc(Cl)cc2)c2c(C#N)c(Cl)ccc2n1CC(=O)O
6

====

# pIC50 annotations
Biological target: Prostaglandin D2 receptor 2 (Homo sapiens, UniProt Q9Y5Y4)
Assay: Displacement of [3H]PGD2 from human CRTH2 receptor
Here pIC50 is given on a logarithmic scale as minus log10 of the concentration in mol/L.

Examples with their reported pIC50 follow.
{"CPD_SMILES": "Cc1c(Sc2ccc(Cl)cc2)c2c(C#N)c(Cl)ccc2n1CC(=O)O", "pIC50": 8.21}
{"CPD_SMILES": "O=C(O)Cn1cc(Sc2ccc(Cl)cc2)c2cc(Cl)ccc21", "pIC50": 7.05}
{"CPD_SMILES": "Cc1ccc2c(c1)c(Sc1ccccc1)c(C)n2CC(=O)O", "pIC50": 7.70}
{"CPD_SMILES": "COc1ccc(Sc2c(C)n(CC(=O)O)c3ccc(C)cc23)cc1", "pIC50": 8.15}
{"CPD_SMILES": "COc1cccc(S(=O)(=O)c2c(C)n(CC(=O)O)c3ccc(C)cc23)c1", "pIC50": 7.15}
{"CPD_SMILES": "Cc1c(Sc2ccc(Cl)cc2)c2c(-c3nccs3)cccc2n1CC(=O)O", "pIC50": 8.46}

Would you kindly share the measured pIC50 for Cc1c(S(=O)(=O)c2ccc(Cl)cc2)c2c(NS(C)(=O)=O)cccc2n1CC(=O)O ?
8.10

Next: CNC(=O)c1cccc2c1c(Sc1ccc(Cl)cc1)c(C)n2CC(=O)O
7.35

The values you see were collected from ChEMBL document CHEMBL1914459.
